- experimentalConditions: in n-propanol, 293.15 K

compound | solubility (mole fraction)
CCCCN(CCCC)CC(O)c1cc(Cl)cc2c1-c1ccc(Cl)cc1/C2=C/c1ccc(Cl)cc1 (stereo unspecified) | 0.00021

====

- experimentalConditions: in ethyl acetate, 318.15 K
resultType: solubility (mole fraction)

molecule | resultNumber
CCCCN(CCCC)CC(O)c1cc(Cl)cc2c1-c1ccc(Cl)cc1/C2=C/c1ccc(Cl)cc1 (stereo unspecified) | 0.0151

====

- experimentalConditions: in n-octanol, 323.15 K
resultType: solubility (mole fraction)

molecule | resultNumber
CCCCN(CCCC)CC(O)c1cc(Cl)cc2c1-c1ccc(Cl)cc1/C2=C/c1ccc(Cl)cc1 (stereo unspecified) | 0.00516
